Sourced from ChEMBL document CHEMBL1201862

# Test system: SK-MEL-2
# Test summary: NCI tumour cell line growth inhibition, 48 h
Activity calls are given as the source filed them. Cut-off read from the data, not from the text of the source: active = GI50 up to about 1.1 µM and inactive = higher. Where a SMILES comes first, the peptide text is derived from it. [ ]: non-standard residue; d: D form. The star is where a group is joined. mTyr = N[CH](Cc1cccc(O)c1)C(=O)O; Cbz = O=C(OCc1ccccc1)*; OBn = c1ccc(CO*)cc1
Measurement label: GI50

# count of solved cases: 3
O=c1[nH]c(Nc2ccc(Br)c(C(F)(F)F)c2)nc2[nH]cnc12: 20.2 µM (inactive)
O=C(Cc1ccccc1)C(c1ccccc1)S(=O)(=O)c1ccccc1 (centres undefined): > 100 µM (inactive)
O=C(c1ccc(Cl)cc1Cl)N(Cc1cccnc1)C(=S)N(Cc1cccnc1)C(=O)c1ccc(Cl)cc1Cl: 3.58 µM (inactive)

Which GI50 value is on record for "COc1ccc(-c2cc(C(=O)Nc3cccc(C(F)(F)F)c3)nc(S)n2)cc1" ?
> 100 µM (inactive)

Request: "CCCCCCCCCCC/C(=N/O)c1ccc(O)c2ncccc12"
2.4 µM (inactive)

Follow-up entry: "O=C(Cc1ccc([N+](=O)[O-])c([N+](=O)[O-])c1CC(=O)C(=O)Nc1cc(Cl)ccc1Cl)C(=O)Nc1cc(Cl)ccc1Cl"
> 100 µM (inactive)

Then this compound: COC(=O)C(Cc1cccc(O)c1)NC(=O)C(CC(=O)OCc1ccccc1)NC(=O)OCc1ccccc1 (centres undefined) (Cbz-Asp(OBn)-[mTyr]-OMe; configuration not given here)
> 100 µM (inactive)

Then what about the compound "CN(C)/C=N/c1ccc2c3c(cccc13)-c1ccccc1-2" ?
17.1 µM (inactive)

Note, next up: "COC(=O)c1cc2/c(=N/O)c3ccccc3sc2o1"
> 100 µM (inactive)
